Data provenance: paper PMC4336329

Target: human ether-à-go-go-related gene (hERG) potassium channel (human, UniProt Q12809);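 note: peak tail current of the secondary pulse compared with the same well before compound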
Sequence (Q12809 whole entry, looked up): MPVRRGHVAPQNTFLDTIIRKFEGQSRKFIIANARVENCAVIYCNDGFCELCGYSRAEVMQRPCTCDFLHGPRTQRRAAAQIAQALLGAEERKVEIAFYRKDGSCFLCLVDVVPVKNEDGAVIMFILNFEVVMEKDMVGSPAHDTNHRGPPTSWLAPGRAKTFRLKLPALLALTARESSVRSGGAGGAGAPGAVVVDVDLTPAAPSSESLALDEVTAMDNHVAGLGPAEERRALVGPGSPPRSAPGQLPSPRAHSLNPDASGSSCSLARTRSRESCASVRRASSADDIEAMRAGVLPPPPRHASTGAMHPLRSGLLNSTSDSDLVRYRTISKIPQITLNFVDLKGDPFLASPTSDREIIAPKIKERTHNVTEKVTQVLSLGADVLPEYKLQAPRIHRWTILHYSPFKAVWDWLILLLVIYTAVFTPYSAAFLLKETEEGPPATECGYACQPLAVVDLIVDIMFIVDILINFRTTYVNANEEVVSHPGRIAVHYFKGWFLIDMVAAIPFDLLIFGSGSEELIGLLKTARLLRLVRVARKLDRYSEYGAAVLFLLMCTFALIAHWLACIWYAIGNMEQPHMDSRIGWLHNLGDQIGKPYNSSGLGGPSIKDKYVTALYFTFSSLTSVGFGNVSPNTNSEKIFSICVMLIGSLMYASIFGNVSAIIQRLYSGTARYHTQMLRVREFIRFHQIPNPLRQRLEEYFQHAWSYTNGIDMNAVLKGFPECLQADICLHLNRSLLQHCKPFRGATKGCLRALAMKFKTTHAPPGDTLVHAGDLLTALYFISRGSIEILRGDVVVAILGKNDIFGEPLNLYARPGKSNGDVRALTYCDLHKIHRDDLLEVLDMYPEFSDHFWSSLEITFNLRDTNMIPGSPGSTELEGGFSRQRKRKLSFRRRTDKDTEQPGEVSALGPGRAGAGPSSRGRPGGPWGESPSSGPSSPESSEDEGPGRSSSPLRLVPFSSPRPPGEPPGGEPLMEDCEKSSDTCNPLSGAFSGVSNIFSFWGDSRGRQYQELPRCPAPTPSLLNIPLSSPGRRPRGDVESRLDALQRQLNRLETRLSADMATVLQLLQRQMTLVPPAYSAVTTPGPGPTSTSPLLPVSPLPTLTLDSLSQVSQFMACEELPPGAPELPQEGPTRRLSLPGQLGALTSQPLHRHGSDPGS
Test: primary screen, population patch clamp on CHO cells stably expressing hERG; higher = less effect of the substance
In all, about 310,000 compounds went through this assay and about 14,000 (4.5%) showed an effect of 50% or more. The effect is printed as a negative number. The full list was thinned out, with strong results kept by preference.
Property Name: hERG current change (%, negative = inhibition) at 10uM

In [3]: df
Out[3]:
                                   molecule  measured
0  O=[N+]([O-])c1ccc(-c2c(O)c3ccccc3c3nc4ccccc4nc23)cc1       18%
1  Cc1cc(=O)[nH]c(/N=C(\N)Nc2ccc(SC(F)F)cc2)n1    -15.8%
2  CCOc1ccc(N(CC)C(=O)CCS(=O)(=O)c2cccc3nonc23)cc1    -4.92%
3  Cn1ncc(C#N)c1NC(=O)C1CC(c2ccc(Cl)c(Cl)c2)=NO1 (stereo not drawn)    -9.94%
4  Cc1ccc(NC(=O)c2cc(S(=O)(=O)c3ccccc3)ccc2Cl)cc1    -15.4%
5  Cc1cc(C)cc(OCC(=O)OCC(=O)N2CCc3ccccc32)c1     14.5%
6  Cl.OCCN(CCO)CC(O)CN1c2ccccc2Sc2ccccc21 (stereo not drawn)    -12.9%
7  COc1cc(/C=N/N2CCN(c3ccc(Cl)cc3)CC2)cc(OC)c1OC(C)=O     9.63%
8  CCc1cccc(N(C(=O)c2csnn2)C(C(=O)NC(C)(C)C)c2ccccn2)c1 (stereo not drawn)     1.65%

###

Target: human ether-à-go-go-related gene (hERG) potassium channel (human);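 note: peak tail current of the secondary pulse compared with the same well before compound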
Test: primary screen, population patch clamp on CHO cells stably expressing hERG; higher = less effect of the substance
The campaign covered roughly 310,000 compounds. About 14,000 (4.5%) showed an effect of 50% or more. Effects have a minus sign here. This is one part of a sample in which strong results are shown more often than they occur.
Response key: Condition met means hERG current change (%, negative = inhibition) at 10uM >= -40%; Condition not met means hERG current change (%, negative = inhibition) at 10uM < -40%.

In [3]: df
Out[3]:
                                    molecule                                    target         class_name
 0  CCOC(=O)c1cnc2ccc(OCC)cc2c1N1CCN(c2ccccc2OC)CC1  human ether-à-go-go-related gene (hERG) potassium channel (human)      Condition met
 1         COC(/C=C/Nc1ccc(OC)cc1)=C(C#N)C#N  human ether-à-go-go-related gene (hERG) potassium channel (human)  Condition not met
 2  CC(C)(CC(=O)OCC(=O)Nc1ccccc1F)CC1=NS(=O)(=O)c2ccccc2N1  human ether-à-go-go-related gene (hERG) potassium channel (human)      Condition met
 3  CC1C=CCC2C(=O)N(c3ccc(Cl)cc3O)C(=O)C12 (centres unmarked)  human ether-à-go-go-related gene (hERG) potassium channel (human)      Condition met
 4  Cc1cc(-n2c(SCC(=O)NCCC3=CCCCC3)nc3n[nH]c(C)c3c2=N)ccc1Cl  human ether-à-go-go-related gene (hERG) potassium channel (human)      Condition met
 5  CCCn1c(N)c(C(c2ccc(C(=O)OC)cc2)N2CCN(c3ccccc3)CC2)c(=O)[nH]c1=O (centres unmarked)  human ether-à-go-go-related gene (hERG) potassium channel (human)      Condition met
 6  CCOC(=O)c1cc2[nH]c3ccccc3c2[n+](-c2ccc([N+](=O)[O-])cc2)c1N.O=C([O-])C(F)(F)F  human ether-à-go-go-related gene (hERG) potassium channel (human)  Condition not met
 7         COc1ccc(Cc2nnc(NS(C)(=O)=O)s2)cc1  human ether-à-go-go-related gene (hERG) potassium channel (human)      Condition met
 8  O=C(c1ccccc1)N1CC(COc2ccccc2)OC(c2cccnc2)O1 (centres unmarked)  human ether-à-go-go-related gene (hERG) potassium channel (human)      Condition met
 9  COc1cc(/C=C(\C#N)C(=O)NCC2CCCO2)ccc1OCCC(C)C (centres unmarked)  human ether-à-go-go-related gene (hERG) potassium channel (human)      Condition met
10  CS(=O)c1ccccc1COC(=O)Nc1ccccc1 (centres unmarked)  human ether-à-go-go-related gene (hERG) potassium channel (human)      Condition met
11  CCOc1ccccc1NC(=O)COC(=O)CC(C)(C)CC1=NS(=O)(=O)c2ccccc2N1  human ether-à-go-go-related gene (hERG) potassium channel (human)  Condition not met
12  CCOc1ccc2ncc(S(=O)(=O)c3ccccc3)c(N3CCN(c4ccc(OC)cc4)CC3)c2c1  human ether-à-go-go-related gene (hERG) potassium channel (human)      Condition met
13  COCCN1CCN(C(=O)c2ccc3c(c2)S(=O)(=O)c2ccccc2C3=O)CC1  human ether-à-go-go-related gene (hERG) potassium channel (human)      Condition met
14           O/N=C/c1ccc(OCc2ccccc2F)c(Cl)c1  human ether-à-go-go-related gene (hERG) potassium channel (human)      Condition met
15  COc1cc(CNC(C)c2ccccc2)c(Br)cc1OCC(N)=O (centres unmarked)  human ether-à-go-go-related gene (hERG) potassium channel (human)      Condition met
16     Cc1ccc(S(=O)(=O)NC(C)(C)CN2CCNCC2)cc1  human ether-à-go-go-related gene (hERG) potassium channel (human)      Condition met
17  CN(C)CCCOc1ccc(C(C)(C)c2ccccc2)cc1.O=C(O)C(=O)O  human ether-à-go-go-related gene (hERG) potassium channel (human)      Condition met
18  CCCCCCSc1ccc([C@H]2N[C@@](Cc3ccccc3)(C(=O)OC)[C@H]3C(=O)N(C)C(=O)[C@@H]23)cc1OC.O=C(O)C(F)(F)F  human ether-à-go-go-related gene (hERG) potassium channel (human)      Condition met
19  Cc1cc(C)cc(NC(=O)COC(=O)CCCC2=NS(=O)(=O)c3ccccc3N2)c1  human ether-à-go-go-related gene (hERG) potassium channel (human)  Condition not met
20  COc1ccc(Cl)cc1NC(=O)COC(=O)CCCC1=NS(=O)(=O)c2ccccc2N1  human ether-à-go-go-related gene (hERG) potassium channel (human)      Condition met
21  CCOc1ccc2ncc(C(=O)c3ccc(OC)cc3)c(N3CCN(CC)CC3)c2c1  human ether-à-go-go-related gene (hERG) potassium channel (human)  Condition not met
22    COc1ccc(OC)c(-n2cnc3cc(C(=O)O)ccc32)c1  human ether-à-go-go-related gene (hERG) potassium channel (human)      Condition met
23  COc1cc2ncc(C(=O)c3ccccc3)c(N3CCN(Cc4ccccc4)CC3)c2cc1OC  human ether-à-go-go-related gene (hERG) potassium channel (human)      Condition met
24   CCN1CCN(c2c(C=O)c(Cl)nc3ccc(OC)cc23)CC1  human ether-à-go-go-related gene (hERG) potassium channel (human)  Condition not met
25  CC(NCc1cc(Br)ccc1OCC(=O)NCc1ccccc1)c1ccccc1.Cl (centres unmarked)  human ether-à-go-go-related gene (hERG) potassium channel (human)  Condition not met
26       CCCNCc1cc(Br)ccc1OCC(=O)NCCc1ccccc1  human ether-à-go-go-related gene (hERG) potassium channel (human)  Condition not met
27     CC(C)(CN1CCCC1)NS(=O)(=O)c1ccc(Cl)cc1  human ether-à-go-go-related gene (hERG) potassium channel (human)      Condition met
28  CCc1ccc2ncc(C(=O)c3ccccc3)c(N3CCOCC3)c2c1  human ether-à-go-go-related gene (hERG) potassium channel (human)  Condition not met
29  Cc1cccc(NC(=O)CCS(=O)(=O)c2cccc3nonc23)c1C  human ether-à-go-go-related gene (hERG) potassium channel (human)      Condition met
30    CC(C)(CN1CCNCC1)NS(=O)(=O)c1ccc(Cl)cc1  human ether-à-go-go-related gene (hERG) potassium channel (human)  Condition not met
31  COc1cc(NC(=O)COC(=O)CCCC2=NS(=O)(=O)c3ccccc3N2)cc(OC)c1  human ether-à-go-go-related gene (hERG) potassium channel (human)      Condition met
32  CCc1ccc(C(=O)c2cnc3ccc(OC)cc3c2N2CCN(CC)CC2)cc1  human ether-à-go-go-related gene (hERG) potassium channel (human)  Condition not met
33  CN(C)C=O.CN(C)c1ccc(/C=C/c2nc3ccccc3c(=O)n2-c2ccc(C(=O)O)cc2)cc1  human ether-à-go-go-related gene (hERG) potassium channel (human)      Condition met
34  O=C(COC(=O)CCCC1=NS(=O)(=O)c2ccccc2N1)Nc1ccccc1  human ether-à-go-go-related gene (hERG) potassium channel (human)      Condition met
35  CCOC(=O)c1cc2c(=O)n3cccc(C)c3nc2n(CCCOC)c1=NC(=O)c1cccnc1  human ether-à-go-go-related gene (hERG) potassium channel (human)  Condition not met
36          Cc1ccc(C(=O)OCC(=O)NCc2ccco2)cc1  human ether-à-go-go-related gene (hERG) potassium channel (human)      Condition met
